Tested on: MDR1
Experimental Protocol: MDCK-MDR1 permeability assay (BBB penetration potential)
Assay type: in vitro ADME
Measurement Context: dog, MDCK-MDR1, pH 7.4, MDCK-MDR1: Papp A-B
# strict inequality: Papp A→B at 120 min, 5 μM < 4 ×10⁻⁶ cm/s yields Yes, everything else yields No

The following molecules have reported results that may help.
{"Molecule": "Oc1cc2cccnc2cc1-c1ccc(O[C@H]2C[C@@H]3CCC[C@@H](N3)[C@H]2F)nn1 (single isomer, unassigned)", "Assigned Class": "No"}
{"Molecule": "Cn1cc(-c2cc(O)c(-c3ccc(O[C@H]4C[C@@H]5CCC[C@@H](N5)[C@H]4F)nn3)cc2Cl)cn1 (single isomer, unassigned)", "Assigned Class": "No"}
{"Molecule": "C[C@]12CC[C@](C)(N1)[C@H](F)[C@H](Oc1ccc(-c3ccc(-c4cn[nH]c4)cc3O)nn1)C2 (single isomer, unassigned)", "Assigned Class": "No"}
{"Molecule": "Cn1ccc2cc(-c3ccc(O[C@@H]4C[C@H]5CCC[C@H](N5)[C@@H]4F)nn3)c(O)cc2c1=O (single isomer, unassigned)", "Assigned Class": "Yes"}

IN: Criterion: Papp A→B at 120 min, 5 μM strictly below 4 ×10⁻⁶ cm/s. Is it met by Oc1cc(-n2ccnc2)ccc1-c1ccc(O[C@H]2C[C@@H]3CC(F)(F)[C@H](C2)N3)nn1 (single isomer, unassigned) ?
OUT: No

IN: Criterion: Papp A→B at 120 min, 5 μM strictly below 4 ×10⁻⁶ cm/s. Is it met by Cn1ccc(=O)c2cc(-c3ccc(O[C@H]4C[C@]5(C)CCC[C@@](C)(N5)[C@H]4F)nn3)c(O)cc21 (single isomer, unassigned) ?
OUT: Yes

====

Tested on: mHTT protein
Experimental Protocol: mHTT protein assay (2B7-MW1, Mesoscale Discovery)
Assay type: cell-based, human
Measurement Context: GM04724 (CAG 70/20) Huntington's disease patient lymphoblast cells, 48 hours, 2B7-MW1 MSD; read-out: HTT Potency - Protein EC50 mHTT (average)
A collection of compounds and their measured EC50

Below are worked cases with known answers.
{"Compound": "Oc1cc(-c2ccn3cnnc3c2)ccc1-c1ccc(O[C@H]2C[C@@H]3CCC[C@@H](N3)[C@H]2F)nn1 (single isomer, unassigned) [86-ENT2]", "EC50": "101 to 500 nM"}
{"Compound": "Oc1cc(-c2cn[nH]c2)ccc1-c1ccc(O[C@H]2C[C@@H]3CC(F)(F)[C@H](C2)N3)nn1 (single isomer, unassigned) [46-ENT1]", "EC50": "501 to 10000 nM"}
{"Compound": "Cn1cc(-c2ccc(-c3ccc(O[C@@H]4C[C@@]5(C)CC[C@](C)(N5)[C@@H]4F)nn3)c(O)c2)cn1 (single isomer, unassigned) [150-ENT2]", "EC50": "16 to 50 nM"}

IN: Item CNC(=O)c1ccc2cc(-c3ccc(O[C@H]4C[C@]5(C)CCC[C@@](C)(N5)[C@H]4F)nn3)c(O)cc2n1 (single isomer, unassigned) [137-ENT1] has what recorded EC50?
OUT: 0.01 to 15 nM

IN: Item Cc1ccc(-c2ccc(-c3ccc(O[C@@H]4C[C@H]5CCC[C@H](N5)[C@@H]4F)nn3)c(O)c2)cn1 (single isomer, unassigned) [67-ENT1] has what recorded EC50?
OUT: 101 to 500 nM

IN: Item Oc1cc(-n2ccnc2)ccc1-c1ccc(O[C@H]2C[C@@H]3CC(F)(F)[C@H](C2)N3)nn1 (single isomer, unassigned) [51-ENT2] has what recorded EC50?
OUT: 501 to 10000 nM

====

Test system: MDR1
Experimental Protocol: MDCK-MDR1 permeability assay (BBB penetration potential)
Type: in vitro ADME
Measurement Context: dog, MDCK-MDR1, pH 7.4, MDCK-MDR1: Papp B-A
A collection of compounds and their measured Papp B→A at 120 min, 5 μM
Could you give me the number in ×10⁻⁶ cm/s? Just the number is fine.

{"Compound": "Cn1cc(-c2ccc(-c3ccc(O[C@@H]4C[C@H]5CCC[C@H](N5)[C@H]4F)nn3)c(O)c2)cn1 (single isomer, unassigned)", "Unit Symbol": "×10⁻⁶ cm/s", "Papp B→A at 120 min, 5 μM": 11.8}
{"Compound": "Cn1ccc2cc(-c3ccc(O[C@H]4C[C@]5(C)CCC[C@@](C)(N5)[C@H]4F)nn3)c(O)cc2c1=O (single isomer, unassigned)", "Unit Symbol": "×10⁻⁶ cm/s", "Papp B→A at 120 min, 5 μM": 46.3}
{"Compound": "Cn1c(=O)oc2cc(-c3ccc(O[C@H]4C[C@@H]5CCC[C@@H](N5)[C@H]4F)nn3)c(O)cc21 (single isomer, unassigned)", "Unit Symbol": "×10⁻⁶ cm/s", "Papp B→A at 120 min, 5 μM": 31.4}
{"Compound": "Cc1cc(-c2ccc(-c3ccc(O[C@H]4C[C@@H]5CCC[C@@H](N5)[C@H]4F)nn3)c(O)c2)co1 (single isomer, unassigned)", "Unit Symbol": "×10⁻⁶ cm/s", "Papp B→A at 120 min, 5 μM": 3.23}
{"Compound": "Oc1cc(-n2ccc(F)n2)ccc1-c1ccc(O[C@@H]2C[C@H]3CCC[C@H](N3)[C@@H]2F)nn1 (single isomer, unassigned)", "Unit Symbol": "×10⁻⁶ cm/s", "Papp B→A at 120 min, 5 μM": 20.3}
{"Compound": "Cc1nnc(-c2ccc(-c3ccc(O[C@H]4C[C@@H]5CCC[C@@H](N5)[C@H]4F)nn3)c(O)c2)o1 (single isomer, unassigned)", "Unit Symbol": "×10⁻⁶ cm/s", "Papp B→A at 120 min, 5 μM": 46.7}

IN: Item Cn1cc(-c2ccc(-c3ccc(O[C@H]4C[C@@H]5CCC[C@@H](N5)[C@H]4F)nn3)c(O)c2)oc1=O (single isomer, unassigned) has what recorded Papp B→A at 120 min, 5 μM?
OUT: 32

IN: Item Cn1cc(-c2cc(O)c(-c3ccc(O[C@@H]4C[C@H]5CCC[C@H](N5)[C@@H]4F)nn3)cn2)cn1 (single isomer, unassigned) has what recorded Papp B→A at 120 min, 5 μM?
OUT: 12.4

IN: Item Cn1cnc(-c2ccc(-c3ccc(O[C@@H]4C[C@@]5(C)CCC[C@](C)(N5)[C@@H]4F)nn3)c(O)c2)cc1=O (single isomer, unassigned) has what recorded Papp B→A at 120 min, 5 μM?
OUT: 32.1

IN: Item Cc1nc(-c2ccc(-c3ccc(O[C@H]4C[C@@H]5CCC[C@@H](N5)[C@H]4F)nn3)c(O)c2)co1 (single isomer, unassigned) has what recorded Papp B→A at 120 min, 5 μM?
OUT: 54.6

IN: Item Cn1ccc(=O)c2cc(O)c(-c3ccc(O[C@H]4C[C@]5(C)CCC[C@@](C)(N5)[C@H]4F)nn3)cc21 (stereo in doubt) [132-ENT2] has what recorded Papp B→A at 120 min, 5 μM?
OUT: 13.4

IN: Item Oc1cc(-c2nnco2)c(F)cc1-c1ccc(O[C@@H]2C[C@H]3CC[C@H](N3)[C@@H]2F)nn1 (single isomer, unassigned) [142-ENT2] has what recorded Papp B→A at 120 min, 5 μM?
OUT: 54.5

IN: Item O=c1cc(-c2ccc(-c3ccc(O[C@@H]4C[C@H]5CCC[C@H](N5)[C@@H]4F)nn3)c(O)c2)ccn1CF (single isomer, unassigned) has what recorded Papp B→A at 120 min, 5 μM?
OUT: 51

IN: Item Oc1cc(-c2cn[nH]c2)ccc1-c1ccc(O[C@@H]2C[C@H]3CC[C@H](N3)[C@@H]2F)nn1 (single isomer, unassigned) has what recorded Papp B→A at 120 min, 5 μM?
OUT: 38.5

IN: Item Cn1ccc2cc(-c3ccc(O[C@H]4CC5CCC[C@@H](N5)[C@H]4F)nn3)c(O)cc2c1=O (single isomer, unassigned) has what recorded Papp B→A at 120 min, 5 μM?
OUT: 76

IN: Item CNC(=O)c1ccc2cc(-c3ccc(O[C@H]4C[C@]5(C)CCC[C@@](C)(N5)[C@H]4F)nn3)c(O)cc2n1 (single isomer, unassigned) has what recorded Papp B→A at 120 min, 5 μM?
OUT: 40.1

IN: Item Oc1cc(-n2ccnc2)ccc1-c1ccc(O[C@@H]2C[C@H]3CC[C@H](N3)[C@@H]2F)nn1 (single isomer, unassigned) has what recorded Papp B→A at 120 min, 5 μM?
OUT: 26

IN: Item Cc1nnc(-c2ccc(-c3ccc(O[C@@H]4C[C@H]5CCC[C@H](N5)[C@@H]4F)nn3)c(O)c2)o1 (single isomer, unassigned) has what recorded Papp B→A at 120 min, 5 μM?
OUT: 41.2

IN: Item Cn1cnc(-c2ccc(-c3ccc(O[C@@H]4C[C@H]5CCC[C@H](N5)[C@@H]4F)nn3)c(O)c2)cc1=O (single isomer, unassigned) has what recorded Papp B→A at 120 min, 5 μM?
OUT: 53.9

IN: Item Cn1ccc2cc(-c3ccc(O[C@@H]4C[C@@]5(C)CC[C@](C)(N5)[C@@H]4F)nn3)c(O)cc2c1=O (single isomer, unassigned) has what recorded Papp B→A at 120 min, 5 μM?
OUT: 55.3

IN: Item Oc1cc(-c2ccc3nncn3c2)ccc1-c1ccc(O[C@@H]2C[C@H]3CCC[C@H](N3)[C@@H]2F)nn1 (single isomer, unassigned) has what recorded Papp B→A at 120 min, 5 μM?
OUT: 40.9

IN: Item Oc1cc(-n2ccnc2)ccc1-c1ccc(O[C@H]2C[C@@H]3CC[C@@H](N3)[C@H]2F)nn1 (single isomer, unassigned) has what recorded Papp B→A at 120 min, 5 μM?
OUT: 28.9

IN: Item Oc1cc(-c2ccn3ccnc3c2)ccc1-c1ccc(O[C@H]2C[C@@H]3CCC[C@@H](N3)[C@H]2F)nn1 (single isomer, unassigned) has what recorded Papp B→A at 120 min, 5 μM?
OUT: 9.61
